Biological target: HIV-1 RT (Human immunodeficiency virus type 1 group M subtype B, UniProt P04585)
Construct: Because HIV-1 reverse transcriptase (RT) has a low fidelity; purchased Roche, Basel, Switzerland
Test: HIV RT inhibitory activity, colorimetric Reverse Transcriptase Assay kit (Roche)
Format: biochemical
Settings: HIV-1 RT, 2 ng enzyme, at least two measurements; read-out: IC50
readout.kind: pIC50
Formally, pIC50 is defined as -log10 of the concentration c, with c in mol/L.

Provide value of pIC50 for this record tested with HIV-1 RT (Human immunodeficiency virus type 1 group M subtype B, UniProt P04585): Cc1cc(OCC(=O)[O-])ccc1C(=O)COc1cc(Cl)ccc1Oc1cc(Cl)cc(C#N)c1.[K+]
5.33

Record: N#Cc1cc(Cl)cc(Oc2ccc(Cl)cc2OCC(=O)c2ccc(OCC(=O)O)cc2)c1
4.63

Record: Cc1cc(OCC(=O)[O-])ccc1C(=O)COc1ccc(Cl)c(Oc2cc(Cl)cc(C#N)c2)c1.[K+]
5.33

Record: Cc1cc(C(=O)COc2cc(Cl)ccc2Oc2cc(Cl)cc(C#N)c2)ccc1OCC(=O)[O-].[K+]
5.51

Record: N#Cc1cc(Cl)cc(Oc2cc(Cl)ccc2OCC(=O)c2ccc(Oc3ccc(OCC(=O)[O-])cc3)cc2)c1.[K+]
5.90

Record: N#Cc1cc(Cl)cc(Oc2cccc(OCC(=O)c3ccc(OCC(=O)[O-])cc3)c2)c1.[K+]
5.01

Record: Cc1cc(C(=O)COc2ccc(Cl)c(Oc3cc(Cl)cc(C#N)c3)c2)ccc1OCC(=O)[O-].[K+]
6.19

----------
Test: Aqueous solubility by weighing dried aliquots
Type: physicochemical
Settings: ultrapure deionised water, room temperature, pH =7
Please respond with reported Solubility for every item in the list.
Number only, in mg/mL; omit the unit.

Which Solubility value is on record for Cc1cc(C(=O)COc2cc(Cl)ccc2Oc2cc(Cl)cc(C#N)c2)ccc1OCC(=O)[O-].[K+] ?
39.9

Record: Cc1cc(OCC(=O)[O-])ccc1C(=O)COc1ccc(Cl)c(Oc2cc(Cl)cc(C#N)c2)c1.[K+]
8.9

Record: Cc1cc(C(=O)COc2ccc(Cl)c(Oc3cc(Cl)cc(C#N)c3)c2)ccc1OCC(=O)[O-].[K+]
3.8

Record: Cc1cc(OCC(=O)[O-])ccc1C(=O)COc1cc(Cl)ccc1Oc1cc(Cl)cc(C#N)c1.[K+]
14.4

----------
Test system: SupT1 cells
Test: Cytotoxicity from cell numbers in non-infected SupT1 cultures
Assay type: cell-based
Conditions: concentration at which toxicity is observed in 10-fold titration series
Please respond with reported Threshold toxicity for every item in the list.

Which Threshold toxicity value is on record for Cc1cc(/C=C/C#N)cc(C)c1Nc1ccnc(Nc2ccc(C#N)cc2)n1 [RPV, rilpivirine, reference compound] ?
0.5 µM

Record: Cc1cc(C(=O)COc2cc(Cl)ccc2Oc2cc(Cl)cc(C#N)c2)ccc1OCC(=O)[O-].[K+] [Compound 8e]
50 µM

Record: Cc1cc(OCC(=O)[O-])ccc1C(=O)COc1ccc(Cl)c(Oc2cc(Cl)cc(C#N)c2)c1.[K+] [Compound 7f]
>50 µM

Record: N#Cc1cc(Cl)cc(Oc2cc(Cl)ccc2OCC(=O)c2ccc(Oc3ccc(OCC(=O)[O-])cc3)cc2)c1.[K+] [Compound 8f]
5 µM

Record: N#Cc1cc(Cl)cc(Oc2ccc(Cl)cc2OCC(=O)c2ccc(OCC(=O)O)cc2)c1 [Compound 8a]
50 µM

Record: O=C([O-])COc1ccc(C(=O)COc2ccc(Cl)c(Oc3cc(Cl)cc(Cl)c3)c2)cc1.[K+] [Compound 7b]
50 µM

Record: Cc1ccnc2c1NC(=O)c1cccnc1N2C1CC1 [NVP, nevirapine, reference compound]
50 µM

Record: Cc1cc(C(=O)COc2ccc(Cl)c(Oc3cc(Cl)cc(C#N)c3)c2)ccc1OCC(=O)[O-].[K+] [Compound 7g]
50 µM

Record: N#Cc1cc(Cl)cc(Oc2cccc(OCC(=O)c3ccc(OCC(=O)[O-])cc3)c2)c1.[K+] [Compound 7d]
50 µM

Record: N#Cc1cc(Cl)cc(Oc2cc(Cl)cc(OCC(=O)c3ccc(OCC(=O)[O-])cc3)c2)c1.[K+] [Compound 7c]
50 µM

Record: N#Cc1cc(Cl)cc(Oc2cc(OCC(=O)c3ccc(OCC(=O)O)cc3)ccc2Cl)c1 [Compound 7a]
5 µM

Record: Cc1cc(OCC(=O)[O-])ccc1C(=O)COc1cc(Cl)ccc1Oc1cc(Cl)cc(C#N)c1.[K+] [Compound 8d]
50 µM

----------
Please respond with reported pIC50 for every item in the list.
Target: HIV-1 RT (Human immunodeficiency virus type 1 group M subtype B)
Construct: Because HIV-1 reverse transcriptase (RT) has a low fidelity; purchased Roche, Basel, Switzerland
Experiment: HIV RT inhibitory activity, colorimetric Reverse Transcriptase Assay kit (Roche)
Assay type: biochemical
Details: HIV-1 RT, 2 ng enzyme, at least two measurements; read-out: IC50
Description: HIV RT inhibitory activity of the new compounds was measured using the colorimetric Reverse Transcriptase Assay kit (Roche, Basel, Switzerland). […] Averaged results from at least two measurements were used to obtain an inhibition curve. IC50 values were obtained by interpolating the curve using non-linear regression.
Formally, pIC50 is defined as -log10 of the concentration c, with c in mol/L.

Which pIC50 value is on record for N#Cc1cc(Cl)cc(Oc2cc(OCC(=O)c3ccc(OCC(=O)O)cc3)ccc2Cl)c1 [Compound 7a] ?
5.91

Record: Cc1cc(/C=C/C#N)cc(C)c1Nc1ccnc(Nc2ccc(C#N)cc2)n1 [RPV, rilpivirine, reference compound]
6.49

Record: N#Cc1cc(Cl)cc(Oc2cc(Cl)cc(OCC(=O)c3ccc(OCC(=O)[O-])cc3)c2)c1.[K+] [Compound 7c]
5.08

----------
Please respond with reported Solubility for every item in the list.
Test: Aqueous solubility by weighing dried aliquots
Format: physicochemical
Details: thermodynamic from solid; ultrapure deionised water, room temperature, pH =7; read-out: Solubility
Number only, in mg/mL; omit the unit.

Which Solubility value is on record for N#Cc1cc(Cl)cc(Oc2cc(OCC(=O)c3ccc(OCC(=O)O)cc3)ccc2Cl)c1 ?
13.1

Record: O=C([O-])COc1ccc(C(=O)COc2ccc(Cl)c(Oc3cc(Cl)cc(Cl)c3)c2)cc1.[K+]
4.3

----------
Experiment: Aqueous solubility by weighing dried aliquots
Type: physicochemical
Details: ultrapure deionised water, room temperature, pH =7
Please respond with reported Solubility for every item in the list.

Which Solubility value is on record for N#Cc1cc(Cl)cc(Oc2cc(Cl)ccc2OCC(=O)c2ccc(Oc3ccc(OCC(=O)[O-])cc3)cc2)c1.[K+] ?
>50.0 mg/mL

Record: N#Cc1cc(Cl)cc(Oc2cc(Cl)cc(OCC(=O)c3ccc(OCC(=O)[O-])cc3)c2)c1.[K+]
>50.0 mg/mL

Record: N#Cc1cc(Cl)cc(Oc2cccc(OCC(=O)c3ccc(OCC(=O)[O-])cc3)c2)c1.[K+]
>50.0 mg/mL
